Test system: blackgrass
Run Description: Test B pre/postemergence blackgrass
Format: in vivo, Alopecurus myosuroides
Run Conditions: Preemergence, Rate 125 g/ha; scale 0 to 10, 0 is no effect, 10 is complete control
Method: […] At the same time, these crop and weed species were also treated with postemergence applications of test chemicals formulated in the same manner. […] Treated plants and controls were maintained in a greenhouse for twelve to sixteen days, after which all species were compared to controls and visually evaluated. […]
Items are presented alongside their recorded Blackgrass plant response rating.
Measured Endpoint: Blackgrass plant response rating

Sample Smiles | Measured Endpoint | Readout Number
C=C(Cn1c(=O)on(C(=O)N(c2ccccc2)C(C)C)c1=O)c1cccnc1 | Blackgrass plant response rating | 0
CC(C)N(C(=O)n1oc(=O)n(Cc2cnc(Cl)s2)c1=O)c1ccc(F)cc1 | Blackgrass plant response rating | 0
CC(C)N(C(=O)n1oc(=O)n(CC(=O)C2CC2)c1=O)c1ccc(F)cc1 | Blackgrass plant response rating | 8
CC(C)N(C(=O)n1oc(=O)n(CC[N+](=O)[O-])c1=O)c1ccc(Cl)cc1 | Blackgrass plant response rating | 0
CC(C)N(C(=O)n1oc(=O)n(CCCC(F)(F)F)c1=O)c1ccc(Cl)cc1 | Blackgrass plant response rating | 0

----------
System: cocklebur
Run Description: Test B pre/postemergence cocklebur
Assay type: in vivo, Xanthium strumarium
Run Conditions: Preemergence, Rate 500 g/ha; scale of 0 to 10 where 0 is no effect and 10 is complete control

Compound | Plant response rating, Cocklebur
CC(C)N(C(=O)n1oc(=O)n(CC(=O)C2CCC2)c1=O)c1ccc(Cl)cc1 [Compound 643] | 0
CC(C)N(C(=O)n1oc(=O)n(C(C)C(=O)N2CCOCC2)c1=O)c1ccc(Cl)cc1 (stereo not drawn) [Compound 703] | 0
CC(=O)N(C)CCn1c(=O)on(C(=O)N(c2ccc(F)cc2)C(C)C)c1=O [Compound 625] | 0
CCC(C)N(C(=O)n1oc(=O)n(C(C)C)c1=O)c1ccc(F)cc1 (stereo not drawn) [Compound 689] | 0
CC(C)N(C(=O)n1oc(=O)n(C2CC2)c1=O)c1ccccc1 [Compound 243] | 5
CC[C@@H](C)n1c(=O)on(C(=O)N(c2ccc(Cl)cc2)C(C)C)c1=O [Compound 665] | 0
CC(C)N(C(=O)n1oc(=O)n(CCC2CCCCC2)c1=O)c1ccc(F)cc1 [Compound 257] | 0
C=C(Cn1c(=O)on(C(=O)N(c2ccccc2)C(C)C)c1=O)C(C)(C)C [Compound 648] | 0
CC[C@@H](C)n1c(=O)on(C(=O)N(c2ccc(F)cc2F)C(C)C)c1=O [Compound 667] | 0

----------
System: pigweed
Run Description: Test B pre/postemergence pigweed
Format: in vivo, Amaranthus retroflexus
Run Conditions: Preemergence, Rate 125 g/ha; scale 0 to 10 (0 no effect, 10 complete control)
Items are presented alongside their recorded Plant response rating, Redroot pigweed.
Measured Endpoint: Plant response rating, Redroot pigweed

Sample Smiles | Tested System | Readout Number
COc1ccc(N(C(=O)n2oc(=O)n(-c3ccccc3C)c2=O)C(C)C)cc1 | pigweed | 0
Cc1ccccc1-n1c(=O)on(C(=O)N(c2cc(F)ccc2F)C(C)C)c1=O | pigweed | 2
CCN(CC)C(=O)n1oc(=O)n(-c2ccc(OC(F)(F)F)cc2)c1=O | pigweed | 0
CCn1c(=O)on(C(=O)N(c2ccc(F)cc2)C(C)C)c1=O | pigweed | 10
